# experiment_description: Solubility of compound at 3 uM
# Type: physicochemical
result_type: solubility at 3 µM (µM)

substance_smiles=Cc1cc(C)n(-c2nc(O)cc(-c3ccccc3)n2)n1 result=180

====

Listing of entries alongside the reported log10(solubility).
# experiment_description: Aqueous solubility of compound at pH 7.4
# Assay type: physicochemical
# test_context: buffer
result_type: log10(solubility) (log10 of the value in µM)

substance_smiles=Cc1cc(C)n(-c2nc(-c3ccc(F)cc3)c(C(=O)O)c(=O)[nH]2)n1 result_type=log10(solubility) result=2.28
substance_smiles=Cc1nn(-c2nc(C(F)(F)F)cc(=O)[nH]2)c(C)c1N1CCOCC1 result_type=log10(solubility) result=2.20
substance_smiles=Cc1cc(O)nc(-n2nc(C)cc2C)n1 result_type=log10(solubility) result=2.26
substance_smiles=Cc1cc(Nc2ccc(F)cc2)n(-c2nc(C(F)(F)F)cc(=O)[nH]2)n1 result_type=log10(solubility) result=1.18
substance_smiles=Cc1cc(C)n(-c2nc(-c3ccccc3)c(C)c(=O)[nH]2)n1 result_type=log10(solubility) result=2.08
substance_smiles=O=c1cc(-c2ccccc2)nc(-n2cccn2)[nH]1 result_type=log10(solubility) result=2.28
substance_smiles=Cc1cc(C)n(-c2nc(C(F)(F)F)cc(=O)[nH]2)n1 result_type=log10(solubility) result=2.30
substance_smiles=CNC(=O)c1ccc(-c2cc(=O)[nH]c(-n3nc(C)cc3C)n2)cc1 result_type=log10(solubility) result=1.85
substance_smiles=Nc1cc(C2CC2)nn1-c1nc(C(F)(F)F)cc(=O)[nH]1 result_type=log10(solubility) result=1.00
substance_smiles=Cc1cc(C)n(-c2nc(-c3ccc(N4CCOCC4)cc3)cc(=O)[nH]2)n1 result_type=log10(solubility) result=1.60
substance_smiles=Cc1nn(-c2nc(C(F)(F)F)cc(=O)[nH]2)c(C)c1-c1cccnc1 result_type=log10(solubility) result=2.29
substance_smiles=Cc1cc(C(=O)O)nn1-c1nc(-c2ccc(F)cc2)cc(=O)[nH]1 result_type=log10(solubility) result=2.19
substance_smiles=CCNc1cc(C)nn1-c1nc(C(F)(F)F)cc(=O)[nH]1 result_type=log10(solubility) result=1.93
substance_smiles=Cc1cc(C)n(-c2nc(C)c(-c3ccccc3)c(=O)[nH]2)n1 result_type=log10(solubility) result=2.28

====

# experiment_description: Kinetic solubility of compound at 200 uM at pH 7.4 measured after 20 hrs by HPLC-DAD analysis
# Type: physicochemical
# test_context: buffer, pH 7.4, 20 h
Listing of entries alongside the reported log10 of Kinetic_solubility.
result_type: log10 of Kinetic_solubility (log10 of the value in µM)

substance_smiles=Cc1cc(C)n(-c2nc(-c3ccccc3)c(C)c(=O)[nH]2)n1 result=2.08
substance_smiles=Cc1cc(Nc2ccc(F)cc2)n(-c2nc(C(F)(F)F)cc(=O)[nH]2)n1 result=1.18
substance_smiles=Cc1cc(Nc2ccccn2)n(-c2nc(C(F)(F)F)cc(=O)[nH]2)n1 result=1.40
substance_smiles=CCNc1cc(C)nn1-c1nc(-c2cccnc2)cc(=O)[nH]1 result=1.95
substance_smiles=Cc1nn(-c2nc(C(F)(F)F)cc(=O)[nH]2)c(C)c1N1CCOCC1 result=2.20
substance_smiles=Cc1cc(NC2CCOCC2)n(-c2nc(C(F)(F)F)cc(=O)[nH]2)n1 result=1.70
substance_smiles=Cc1cc(C)n(-c2nc(C(F)(F)F)cc(=O)[nH]2)n1 result=2.30
